assay: Pharmacokinetic study after intravenous injection and oral administration (plasma, LC-MS/MS); type: in vivo, rats; details: male, SD, rat, plasma, 10 mg/kg; PO (10 mpk)
In this section we review reported AUC(0-t) values for a set of compounds.
MEASUREMENT NAME: AUC(0-t) (µM·h)

{"columns": ["COMPOUND", "VALUE UNIT", "REPORTED MEASUREMENT"],
 "data": [
  ["CNc1ccc(-c2cnc(Nc3cnc(C4CC4)nc3)cc2C)c2c1C(=O)NC2", "µM·h", 198],
  ["COc1ccc(-c2ccc(NC(=O)Nc3cccc(C)c3)cc2)c2c1C(=O)NC2 [Control compound, reference compound]", "µM·h", 0.333]
]}

----------
molecular target: CSF-1R (Homo sapiens (Human), UniProt P07333); test: In vitro inhibitory activity on CSF-1R kinase (33P-ATP filter-binding, Reaction Biology Corporation); type: biochemical; conditions: CSF-1R 2.5 nM, filter-binding method
Sequence (P07333 20-972): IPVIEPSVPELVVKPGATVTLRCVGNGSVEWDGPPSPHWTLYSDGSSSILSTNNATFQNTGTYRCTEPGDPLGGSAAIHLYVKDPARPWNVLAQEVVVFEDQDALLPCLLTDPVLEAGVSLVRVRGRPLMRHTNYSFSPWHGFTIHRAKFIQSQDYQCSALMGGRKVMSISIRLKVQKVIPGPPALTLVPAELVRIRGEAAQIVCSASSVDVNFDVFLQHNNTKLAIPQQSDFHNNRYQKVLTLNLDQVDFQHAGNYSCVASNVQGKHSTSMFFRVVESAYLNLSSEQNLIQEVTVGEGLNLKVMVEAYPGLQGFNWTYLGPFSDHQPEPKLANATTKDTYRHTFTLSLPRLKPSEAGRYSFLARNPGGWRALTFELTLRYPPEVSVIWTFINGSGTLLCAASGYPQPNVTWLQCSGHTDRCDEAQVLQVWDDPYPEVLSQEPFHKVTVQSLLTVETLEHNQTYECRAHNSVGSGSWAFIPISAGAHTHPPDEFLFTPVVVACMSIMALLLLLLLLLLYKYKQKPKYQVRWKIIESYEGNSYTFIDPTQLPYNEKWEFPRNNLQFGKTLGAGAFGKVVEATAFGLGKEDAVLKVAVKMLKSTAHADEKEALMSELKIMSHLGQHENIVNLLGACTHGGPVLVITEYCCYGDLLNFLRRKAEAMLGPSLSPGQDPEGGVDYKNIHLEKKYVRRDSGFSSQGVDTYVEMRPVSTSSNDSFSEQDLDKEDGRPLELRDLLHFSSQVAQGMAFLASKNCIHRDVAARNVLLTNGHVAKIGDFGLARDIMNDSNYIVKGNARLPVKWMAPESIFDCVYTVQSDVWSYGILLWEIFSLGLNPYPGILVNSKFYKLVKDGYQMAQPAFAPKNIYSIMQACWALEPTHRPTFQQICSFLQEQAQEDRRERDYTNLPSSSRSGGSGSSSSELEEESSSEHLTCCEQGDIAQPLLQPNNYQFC
# key: entry, value: IC50

{"columns": ["SMILES REPRESENTATION", "IC50 (nM)"],
 "data": [
  ["CNc1ccc(-c2cnc(Nc3cnc(C4CC4)cn3)cc2C)c2c1C(=O)NC2", 1.89],
  ["CNc1ccc(-c2cnc(Nc3ccc(OC4CC4)nc3)cc2C)c2c1C(=O)NC2", 1.68],
  ["CNc1ccc(-c2cnc(Nc3cnc(C4CC4)nc3)cc2C)c2c1C(=O)NC2", 2.61],
  ["Cc1cc(NCc2ccc(C(F)(F)F)nc2)ncc1-c1ccc(N(C)C)c2c1CNC2=O", 3.06]
]}

----------
Recorded AUC(0-t) values for a group of compounds are listed next.
Assay: Pharmacokinetic study after intravenous injection and oral administration (plasma, LC-MS/MS)
Format: in vivo, rats
Conditions: male, SD, rat, plasma, 1 mg/kg; IV (1 mpk)
Text: Example 2 Pharmacokinetic Study on Mice and Rats (PK) The purpose of this experiment was to study the pharmacokinetics of the test article in the plasma of male C57BL/6J mice and SD rats after intravenous injection and oral administration. The animals were randomly divided into two groups with 2 males in each group. The compounds were formulated into prescribed preparations. Preparations for intravenous injection were clear solutions, and oral preparations could be clear or homogeneous suspensions. […]

{"columns": ["COMPOUND", "AUC(0-t)"],
 "data": [
  ["CNc1ccc(-c2cnc(Nc3cnc(C4CC4)nc3)cc2C)c2c1C(=O)NC2", "18.7 µM·h"],
  ["COc1ccc(-c2ccc(NC(=O)Nc3cccc(C)c3)cc2)c2c1C(=O)NC2 [Control compound, reference compound]", "0.918 µM·h"]
]}

----------
target: CSF-1R (Homo sapiens (Human), UniProt P07333); assay: In vitro inhibitory activity on CSF-1R kinase (33P-ATP filter-binding, Reaction Biology Corporation); format: biochemical; details: CSF-1R 2.5 nM, filter-binding method
Threshold 2 nM: IC50 strictly smaller gives YES, otherwise NO.

{"columns": ["SMILES REPRESENTATION", "LABEL CLASS"],
 "data": [
  ["CNc1ccc(-c2cnc(Nc3ccc(N(C)C)nc3)cc2C)c2c1C(=O)NC2", "YES"],
  ["CNc1ccc(-c2cnc(NCc3ccc(C(F)(F)F)nc3)cc2C)c2c1C(=O)NC2", "YES"],
  ["CCOc1ccc(Nc2cc(C)c(-c3ccc(NC)c4c3CNC4=O)cn2)cn1", "YES"],
  ["CNc1ccc(-c2cnc(Nc3ncc(C4CC4)cn3)cc2C)c2c1C(=O)NC2", "NO"],
  ["Cc1cc(NCc2ccc(C(F)(F)F)nc2)ncc1-c1ccc(N)c2c1CNC2=O", "YES"],
  ["CC(=O)Nc1ccc(-c2cnc(NCc3ccc(C(F)(F)F)nc3)cc2C)c2c1C(=O)NC2", "NO"],
  ["CNc1ccc(-c2cnc(Nc3ccc(C4CC4)cn3)cc2C)c2c1C(=O)NC2", "NO"],
  ["CNc1ccc(-c2cnc(Nc3ccc(C4(C#N)CC4)nc3)cc2C)c2c1C(=O)NC2", "NO"]
]}

----------
Measured clearance, listed per entry.
assay: Pharmacokinetic study after intravenous injection and oral administration (plasma, LC-MS/MS); assay type: in vivo, rats; conditions: male, SD, rat, plasma, 1 mg/kg; IV (1 mpk)

{"columns": ["MOLECULE", "clearance"],
 "data": [
  ["CNc1ccc(-c2cnc(Nc3cnc(C4CC4)nc3)cc2C)c2c1C(=O)NC2", "2.31 mL/min/kg"],
  ["COc1ccc(-c2ccc(NC(=O)Nc3cccc(C)c3)cc2)c2c1C(=O)NC2 [Control compound, reference compound]", "46.7 mL/min/kg"]
]}

----------
target: CSF-1R (Homo sapiens (Human)); experiment: In vitro inhibitory activity on CSF-1R kinase (33P-ATP filter-binding, Reaction Biology Corporation); type: biochemical; conditions: CSF-1R 2.5 nM, filter-binding method
API: label(entry) gives rule met if the entry's IC50 is strictly smaller than 4 nM; on equality or larger values it gives rule not met.

{"columns": ["SMILES REPRESENTATION", "TARGET OR SYSTEM", "LABEL CLASS"],
 "data": [
  ["CNc1ccc(-c2cnc(Nc3ccc(OC4CC4)nn3)cc2C)c2c1C(=O)NC2", "CSF-1R (Homo sapiens (Human))", "rule met"],
  ["CNc1ccc(-c2cnc(Nc3cnc(OC4CC4)nc3)cc2C)c2c1C(=O)NC2", "CSF-1R (Homo sapiens (Human))", "rule met"],
  ["CNc1ccc(-c2cnc(Nc3ccc(C4CC4)nc3)cc2C)c2c1C(=O)NC2", "CSF-1R (Homo sapiens (Human))", "rule met"],
  ["CNc1ccc(-c2cnc(Nc3ccc(OC(F)F)nc3)cc2C)c2c1C(=O)NC2", "CSF-1R (Homo sapiens (Human))", "rule not met"],
  ["CNc1ccc(-c2cnc(Nc3ccc(C4CC4)nn3)cc2C)c2c1C(=O)NC2", "CSF-1R (Homo sapiens (Human))", "rule not met"],
  ["CNc1ccc(-c2cnc(Nc3ccc(OC4CC4)cn3)cc2C)c2c1C(=O)NC2", "CSF-1R (Homo sapiens (Human))", "rule not met"],
  ["CNc1ccc(-c2cnc(Nc3ccn(C4CC4)c(=O)c3)cc2C)c2c1C(=O)NC2", "CSF-1R (Homo sapiens (Human))", "rule not met"],
  ["CNc1ccc(-c2cnc(Nc3cnc(OC4CC4)cn3)cc2C)c2c1C(=O)NC2", "CSF-1R (Homo sapiens (Human))", "rule met"]
]}

----------
Catalogue of C0 readings, one per entry.
assay: Pharmacokinetic study after intravenous injection and oral administration (plasma, LC-MS/MS); type: in vivo, rats; settings: male, SD, rat, plasma, 1 mg/kg; IV (1 mpk)

{"columns": ["COMPOUND", "VALUE UNIT", "C0"],
 "data": [
  ["CNc1ccc(-c2cnc(Nc3cnc(C4CC4)nc3)cc2C)c2c1C(=O)NC2", "µM", 6.29],
  ["COc1ccc(-c2ccc(NC(=O)Nc3cccc(C)c3)cc2)c2c1C(=O)NC2 [Control compound, reference compound]", "µM", 3.72]
]}

----------
Test: Pharmacokinetic study after intravenous injection and oral administration (plasma, LC-MS/MS)
Type: in vivo, rats
Settings: male, SD, rat, plasma, 10 mg/kg; PO (10 mpk)
Source text: Example 2 Pharmacokinetic Study on Mice and Rats (PK) The purpose of this experiment was to study the pharmacokinetics of the test article in the plasma of male C57BL/6J mice and SD rats after intravenous injection and oral administration. The animals were randomly divided into two groups with 2 males in each group. The compounds were formulated into prescribed preparations. Preparations for intravenous injection were clear solutions, and oral preparations could be clear or homogeneous suspensions. […]
Reported Cmax values follow for various molecules

{"columns": ["MOLECULE", "Cmax"],
 "data": [
  ["CNc1ccc(-c2cnc(Nc3cnc(C4CC4)nc3)cc2C)c2c1C(=O)NC2 [Compound 10]", "33 µM"],
  ["COc1ccc(-c2ccc(NC(=O)Nc3cccc(C)c3)cc2)c2c1C(=O)NC2 [Control compound, reference compound]", "0.104 µM"]
]}

Cited source for all entries: patent US11384065B2
